- target.entity: DAT (Homo sapiens)
- Sequence (Q01959 whole entry, species assumed): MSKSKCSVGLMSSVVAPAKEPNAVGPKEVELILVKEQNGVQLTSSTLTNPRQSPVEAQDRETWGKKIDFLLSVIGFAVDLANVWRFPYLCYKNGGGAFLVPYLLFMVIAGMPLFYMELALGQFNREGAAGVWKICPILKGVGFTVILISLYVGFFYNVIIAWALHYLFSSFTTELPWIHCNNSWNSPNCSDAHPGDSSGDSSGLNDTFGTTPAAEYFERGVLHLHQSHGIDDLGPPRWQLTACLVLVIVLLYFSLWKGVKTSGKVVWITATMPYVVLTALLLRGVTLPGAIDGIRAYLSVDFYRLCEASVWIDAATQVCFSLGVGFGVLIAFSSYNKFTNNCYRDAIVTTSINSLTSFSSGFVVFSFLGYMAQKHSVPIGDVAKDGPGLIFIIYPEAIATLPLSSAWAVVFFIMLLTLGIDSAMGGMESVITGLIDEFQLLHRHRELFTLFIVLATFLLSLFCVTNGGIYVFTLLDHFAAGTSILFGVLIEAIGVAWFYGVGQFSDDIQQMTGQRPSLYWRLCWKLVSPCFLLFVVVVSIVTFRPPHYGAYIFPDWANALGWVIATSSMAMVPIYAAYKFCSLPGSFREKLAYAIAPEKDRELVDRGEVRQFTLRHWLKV
- procedure.details: DAT radioligand binding with [3H]WIN35,428
quantity.name: pKi
Reminder that pKi means the negative base-10 logarithm of the concentration expressed in mol/L.

Worked examples follow.
{"compound": "O=C1CCCC[C@]1(c1ccccc1)N1CCCCC1 [Compound 26R]", "pKi": 4.15}
{"compound": "CC(C)N[C@]1(c2ccccc2)CCCCC1=O [Compound 28S]", "pKi": 5.22}

Switching to the query record.
In: Consider the compound O=C1CCCCC1(c1ccccc1)N1CCCC1 (racemic) . State its measured pKi.
Out: 4.26

====

Readings of log10 half-life at 1 μM for the listed compounds
- procedure.details: RLM stability (Low Activity)
- Assay type: in vitro ADME, Sprague Dawley rats
- condition.label: male, Sprague Dawley, rat, liver microsomes, pH 7.4, Condition 1 (Low Activity), 0.50 mg protein/mL
The common logarithm of half-life at 1 μM in min is what is listed.

Worked examples follow.
{"compound": "O=C1CCCC[C@@]1(c1ccccc1)N1CCOCC1 [Compound 31S]", "log10 half-life at 1 μM": 0.98}
{"compound": "CCN(CC)[C@@]1(c2ccccc2)CCCCC1=O [Compound 25R]", "log10 half-life at 1 μM": 1.18}
{"compound": "O=C1CCCC[C@@]1(c1ccccc1)N1CCCC1 [Compound 27S]", "log10 half-life at 1 μM": 1.73}
{"compound": "O=C1CCCC[C@]1(c1ccccc1)N1CCCC1 [Compound 27R]", "log10 half-life at 1 μM": 1.75}
{"compound": "Cc1ccccc1[C@@]1(N)CCCCC1=O [Compound 114S, (S)-2-amino-2-(o-tolyl)cyclohexan-1-one]", "log10 half-life at 1 μM": 1.40}

In: Consider the compound CC(C)N[C@]1(c2ccccc2)CCCCC1=O [Compound 28S] . State its measured log10 half-life at 1 μM.
Out: 1.28

In: Consider the compound COCCN[C@@]1(c2ccccc2)CCCCC1=O [Compound 29R] . State its measured log10 half-life at 1 μM.
Out: 1.51

In: Consider the compound O=C1CCCC[C@]1(c1ccccc1)N1CCOCC1 [Compound 31R] . State its measured log10 half-life at 1 μM.
Out: 0.83

In: Consider the compound CC(C)N[C@@]1(c2ccccc2)CCCCC1=O [Compound 28R] . State its measured log10 half-life at 1 μM.
Out: 1.42

In: Consider the compound O=C1CCCCC1(c1ccccc1)N1CCCC1 (racemic) . State its measured log10 half-life at 1 μM.
Out: 1.55

In: Consider the compound CNC1(c2cccc(C)c2)CCCCC1=O (racemic) . State its measured log10 half-life at 1 μM.
Out: 0.56

In: Consider the compound CCN(CC)[C@]1(c2ccccc2)CCCCC1=O [Compound 25S] . State its measured log10 half-life at 1 μM.
Out: 1.16
